- Test system: Adenosine receptor A2a (Bos taurus)
- Assay Comment: Inhibition of [3H]CGS 21680 binding to adenosine A2A receptor in bovine striatal membranes at 10 uM
- Conditions: Striatum, Membrane
Experimental Endpoint: inhibition (%)
Expressed in %, but write only the number.

| Smiles Notation | Unit Text | Recorded Measurement |
| --- | --- | --- |
| COc1ccc(-n2nc3c(NC(C)=O)nc4c([N+](=O)[O-])cccc4n3c2=O)cc1 | % | 7 |
| Nc1cccc2c1nc(N(C(=O)c1ccccc1)C(=O)c1ccccc1)c1nn(-c3ccccc3)c(=O)n12 | % | 36 |
| COc1ccc(-n2nc3c(NC(=O)c4ccccc4)nc4c([N+](=O)[O-])cccc4n3c2=O)cc1 | % | 15 |
| COc1ccc(-n2nc3c(NC(=O)C(c4ccccc4)c4ccccc4)nc4c(N)cccc4n3c2=O)cc1 | % | 0 |
| O=C(Nc1nc2c([N+](=O)[O-])cccc2n2c(=O)n(-c3ccccc3)nc12)C(c1ccccc1)c1ccccc1 | % | 29.5 |

// assay Adenosine receptor A2a (Bos taurus), entry O=C(Nc1nc2ccccc2n2c(=O)n(-c3ccc([N+](=O)[O-])cc3)nc12)C(c1ccccc1)c1ccccc1 , inhibition value = 0

// assay Adenosine receptor A2a (Bos taurus), entry COc1ccc(-n2nc3c(NC(=O)c4ccccc4)nc4ccccc4n3c2=O)cc1 , inhibition value = 23

// assay Adenosine receptor A2a (Bos taurus), entry COc1ccc(-n2nc3c(NC(=O)C(c4ccccc4)c4ccccc4)nc4c([N+](=O)[O-])cccc4n3c2=O)cc1 , inhibition value = 0

// assay Adenosine receptor A2a (Bos taurus), entry O=C(Nc1nc2c([N+](=O)[O-])cccc2n2c(=O)n(-c3ccccc3)nc12)c1ccccc1 , inhibition value = 0

Data origin, for the record: ChEMBL document CHEMBL1138044
